target: recombinant human SERT (Homo sapiens)
Construct: expressed in transfected cells
Sequence (P31645 whole entry): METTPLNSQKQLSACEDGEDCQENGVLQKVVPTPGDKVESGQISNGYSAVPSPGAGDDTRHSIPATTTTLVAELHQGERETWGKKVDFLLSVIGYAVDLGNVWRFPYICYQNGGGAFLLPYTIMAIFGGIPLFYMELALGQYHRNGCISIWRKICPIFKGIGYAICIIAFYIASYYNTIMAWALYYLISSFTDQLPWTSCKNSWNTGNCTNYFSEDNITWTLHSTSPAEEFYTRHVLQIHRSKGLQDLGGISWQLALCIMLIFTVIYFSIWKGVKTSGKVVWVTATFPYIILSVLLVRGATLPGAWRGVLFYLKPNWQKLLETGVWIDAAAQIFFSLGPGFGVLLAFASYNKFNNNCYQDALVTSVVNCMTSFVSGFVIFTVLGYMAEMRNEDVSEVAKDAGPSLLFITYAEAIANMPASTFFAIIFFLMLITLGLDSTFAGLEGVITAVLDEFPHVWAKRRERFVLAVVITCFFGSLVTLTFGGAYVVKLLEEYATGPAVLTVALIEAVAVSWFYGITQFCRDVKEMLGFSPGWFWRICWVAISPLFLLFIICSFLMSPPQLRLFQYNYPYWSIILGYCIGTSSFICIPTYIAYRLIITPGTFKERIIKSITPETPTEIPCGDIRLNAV
measurement.protocol: hSERT SPA binding assay ([3H]citalopram displacement, HEK-293 membranes)
assay.conditions: read-out: pKi hSERT (converted)
Where a name gives a salt, the structure may show the parent alone.
Ki for assorted compounds
Output spec: scalar in nM, unitless text.

Quick one: Ki of CS(=O)(=O)N(Cc1cc(C(F)(F)F)cc(C(F)(F)F)c1)C[C@@H]1CNCC[C@H]1c1ccc(F)cc1 [Example 4 of III, reference compound] ?
10000

Quick one: Ki of [O-][S+](Cc1cc(C(F)(F)F)cc(C(F)(F)F)c1)C[C@@H]1CNCC[C@H]1c1ccc(F)cc1 (some centres unmarked) [Example 2 of II, reference compound] ?
3020

Quick one: Ki of Fc1ccc([C@@H]2CCNC[C@H]2COCc2cc(C(F)(F)F)cc(C(F)(F)F)c2)cc1 [Example 1 of I, hydrochloride] ?
6.17

Quick one: Ki of Fc1ccc([C@@H]2CCNCC2CNCc2cc(C(F)(F)F)cc(C(F)(F)F)c2)cc1 (some centres unmarked) [Example 1 of III, reference compound] ?
724

Quick one: Ki of CN1CC[C@@H](c2ccc(F)cc2)[C@H](COCc2cc(C(F)(F)F)cc(C(F)(F)F)c2)C1 [Example 2 of I] ?
107

Quick one: Ki of FC(F)(F)c1cc(COC[C@@H]2CNCC[C@H]2c2ccccc2)cc(C(F)(F)F)c1 (racemic) [Example 5 of I, hydrochloride] ?
11

Quick one: Ki of Cc1ccccc1C1=C(COCc2cc(C(F)(F)F)cc(C(F)(F)F)c2)CNCC1 [Example 7 of I, hydrochloride] ?
32.4

Quick one: Ki of N#CCN1CC[C@@H](c2ccc(F)cc2)[C@H](COCc2cc(C(F)(F)F)cc(C(F)(F)F)c2)C1 [Example 3 of I] ?
141

----------
target: human NK-1 receptor (Homo sapiens, UniProt P25103)
Construct: expressed in transfected cells; host or cells: CHO cells, Semliki virus expression system; membrane suspension
Sequence (P25103 whole entry): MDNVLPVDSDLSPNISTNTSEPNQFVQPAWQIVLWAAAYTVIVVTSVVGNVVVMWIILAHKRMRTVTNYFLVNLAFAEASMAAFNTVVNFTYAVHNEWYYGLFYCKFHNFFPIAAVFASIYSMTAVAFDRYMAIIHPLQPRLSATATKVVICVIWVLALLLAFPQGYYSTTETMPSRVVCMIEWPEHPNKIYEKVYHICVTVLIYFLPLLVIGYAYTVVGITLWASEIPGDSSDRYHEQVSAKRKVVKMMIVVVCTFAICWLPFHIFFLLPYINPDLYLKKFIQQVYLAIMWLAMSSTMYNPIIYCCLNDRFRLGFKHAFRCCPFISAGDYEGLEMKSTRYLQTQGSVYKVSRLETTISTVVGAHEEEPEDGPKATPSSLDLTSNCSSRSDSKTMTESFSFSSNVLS
measurement.protocol: hNK-1 binding assay ([3H]substance P displacement, transfected CHO cells)
assay.conditions: [3H]substance P 0.6 nM; CHO cells transfected with human NK-1 receptor; read-out: pKi hNK1 (converted)
Structures can show the parent of a compound that is named as a salt.
readout.kind: Ki

Field: example entries. Status: answers known.
FC(F)(F)c1cc(COC[C@@H]2CNCC[C@H]2c2ccccc2)cc(C(F)(F)F)c1 (racemic) [Example 5 of I, hydrochloride] = 8.91 nM
O=S(=O)(Cc1cc(C(F)(F)F)cc(C(F)(F)F)c1)C[C@@H]1CNCC[C@H]1c1ccc(F)cc1 [Example 3 of II, reference compound] = 13.5 nM
N#CCN1CC[C@@H](c2ccc(F)cc2)[C@H](COCc2cc(C(F)(F)F)cc(C(F)(F)F)c2)C1 = 21.4 nM
CN1CC[C@@H](c2ccc(F)cc2)[C@H](COCc2cc(C(F)(F)F)cc(C(F)(F)F)c2)C1 = 8.13 nM
CC(=O)N(Cc1cc(C(F)(F)F)cc(C(F)(F)F)c1)C[C@@H]1CNCC[C@H]1c1ccc(F)cc1 [Example 3 of III, reference compound] = 13.8 nM

Quick one: Ki of Cc1ccccc1[C@@H]1CCNC[C@H]1COCc1cc(C(F)(F)F)cc(C(F)(F)F)c1 (relative stereo) [Example 6 of I, hydrochloride] ?
24 nM

Quick one: Ki of Fc1ccc([C@@H]2CCNCC2CNCc2cc(C(F)(F)F)cc(C(F)(F)F)c2)cc1 (some centres unmarked) [Example 1 of III, reference compound] ?
12.6 nM

----------
target: recombinant human SERT (Homo sapiens)
Construct: expressed in transfected cells
measurement.protocol: hSERT SPA binding assay ([3H]citalopram displacement, HEK-293 membranes)
Description: HEK-293 cells stably expressing recombinant human SERT are maintained with DMEM high glucose with 10% FBS, 300 μg/ml G418 and 2 mM L-Glutamine and incubated at 37° C. with 5% CO2. Cells are released from culture flasks using PBS for 1-2 min. The cells are subsequently centrifuged at 1000 g's for 5 min and resuspended in PBS prior to being used in the membrane preparation. […] The inhibition dissociation constant (Ki) of each compound is determined according to the method of Cheng-Prusoff.
Where a name gives a salt, the structure may show the parent alone.
readout.kind: pKi
Scale: pKi equals -log10([C]), with [C] in mol/L.

Hello, I am looking for reported pKi with recombinant human SERT (Homo sapiens) for Fc1ccc([C@@H]2CCNC[C@H]2COCc2cccc(C(F)(F)F)c2)cc1 [Example 4 of I, hydrochloride] . Could you help?
7.77

----------
target: human NK-1 receptor (Homo sapiens)
Construct: expressed in transfected cells; host or cells: CHO cells, Semliki virus expression system; membrane suspension
measurement.protocol: hNK-1 binding assay ([3H]substance P displacement, transfected CHO cells)
Counter-ions that a name gives are not always drawn.
readout.kind: pKi
Scale: pKi equals -log10([C]), with [C] in mol/L.

Fc1ccc([C@@H]2CCNC[C@H]2COCc2cc(C(F)(F)F)cc(C(F)(F)F)c2)cc1 [Example 1 of I, hydrochloride] = 7.90

Now turn to the next compound.
Quick one: pKi of Cc1ccccc1C1=C(COCc2cc(C(F)(F)F)cc(C(F)(F)F)c2)CNCC1 [Example 7 of I, hydrochloride] ?
8.50

----------
target: recombinant human SERT (Homo sapiens)
Construct: expressed in transfected cells
measurement.protocol: hSERT SPA binding assay ([3H]citalopram displacement, HEK-293 membranes)
assay.conditions: read-out: pKi hSERT (converted)
Where a name gives a salt, the structure may show the parent alone.
readout.kind: Ki (nM)
Output spec: scalar in nM, unitless text.

CN(Cc1cc(C(F)(F)F)cc(C(F)(F)F)c1)C[C@@H]1CNCC[C@H]1c1ccc(F)cc1 [Example 2 of III, reference compound] = 708
CC(=O)N(Cc1cc(C(F)(F)F)cc(C(F)(F)F)c1)C[C@@H]1CNCC[C@H]1c1ccc(F)cc1 [Example 3 of III, reference compound] = 10000

Quick one: Ki of Cc1ccccc1[C@@H]1CCNC[C@H]1COCc1cc(C(F)(F)F)cc(C(F)(F)F)c1 (relative stereo) [Example 6 of I, hydrochloride] ?
32.4

----------
target: human NK-1 receptor (Homo sapiens, UniProt P25103)
Construct: expressed in transfected cells; host or cells: CHO cells, Semliki virus expression system; membrane suspension
measurement.protocol: hNK-1 binding assay ([3H]substance P displacement, transfected CHO cells)
assay.conditions: [3H]substance P 0.6 nM; CHO cells transfected with human NK-1 receptor; read-out: pKi hNK1 (converted)
Where a name gives a salt, the structure may show the parent alone.
Ki for assorted compounds
Please don't drop the unit; write it after the number.

Field: example entries. Status: answers known.
CN(Cc1cc(C(F)(F)F)cc(C(F)(F)F)c1)C[C@@H]1CNCC[C@H]1c1ccc(F)cc1 [Example 2 of III, reference compound] = 20.4 nM
[O-][S+](Cc1cc(C(F)(F)F)cc(C(F)(F)F)c1)C[C@@H]1CNCC[C@H]1c1ccc(F)cc1 (stereo partly shown) [Example 2 of II, reference compound] = 63.1 nM
CS(=O)(=O)N(Cc1cc(C(F)(F)F)cc(C(F)(F)F)c1)C[C@@H]1CNCC[C@H]1c1ccc(F)cc1 [Example 4 of III, reference compound] = 30.2 nM

Now turn to the next compound.
Quick one: Ki of Fc1ccc([C@@H]2CCNC[C@H]2COCc2cccc(C(F)(F)F)c2)cc1 [Example 4 of I, hydrochloride] ?
148 nM
